# Measurement target: T1, mFc tagged human LAG3 ECD recombinant protein (human, UniProt P18627 23-450)
# T1 construct: extracellular domain; purchased from Biointron; not shown: mouse IgG Fc (mFc) tag
# T1 sequence (looked up): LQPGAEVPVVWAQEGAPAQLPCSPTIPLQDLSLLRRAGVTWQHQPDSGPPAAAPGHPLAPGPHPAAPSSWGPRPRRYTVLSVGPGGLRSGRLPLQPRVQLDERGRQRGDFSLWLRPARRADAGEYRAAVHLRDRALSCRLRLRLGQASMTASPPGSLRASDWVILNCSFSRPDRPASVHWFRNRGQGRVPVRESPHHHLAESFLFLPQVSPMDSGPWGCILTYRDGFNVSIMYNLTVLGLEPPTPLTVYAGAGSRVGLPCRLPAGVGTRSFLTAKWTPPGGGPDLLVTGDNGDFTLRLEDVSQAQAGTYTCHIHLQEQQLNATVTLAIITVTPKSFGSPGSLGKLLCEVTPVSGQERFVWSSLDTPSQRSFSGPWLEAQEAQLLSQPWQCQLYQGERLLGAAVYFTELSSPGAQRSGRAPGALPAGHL
# Experiment notes: competitive FACS: mFc tagged human LAG3 ECD binding to MHC II on Raji cells
Consider the following binders; for each one, report its %Blocking at 4 nM.
Just the number plus its unit, please.

Value of %Blocking at 4 nM reported for the binder 029c (antibody, human IgG4, V domains shown, human IgG4 S228P / kappa chimeric antibody; also called chimeric antibody 029; not shown: human kappa light chain constant region (pcDNA3.4-hIgGk vector)) VH: DVKLVESGEDLVKPGGSLKLSCAASGFTFSSYAMSWVRQTPEKRLEWVAYVTSGGDYIYYADTVKGRFTISRDDVRNTLYLQMSSLKSEDTAMYYCTRVAYDYEWYFDVWGTGAPVTVSS VL: DIVMTQSHKFMSTSVGDRVSITCKASQDVTTAVAWYQQKPGQSPKLLIYSASYRYTGVSDRFTGSGSGTDFTFTISSVQAEDLALYYCQQHDSSPWTFGGGTKLEIK is 24.1%

%Blocking at 4 nM recorded for this binder, hu021.269 (antibody, V domains shown, humanized from 021c) VH: QVQLQESGPGLVKPSQTLSLTCTVSGYSITSGYYWNWIRQHPGNKLEWIGDISYDGGNNYNPSLKNRVTISRDTSKNQFSLKLSSVTAADTAVYYCARDITLTGAMDYWGQGTTVTVSS VL: EIVLTQSPATLSLSPGERATLSCRASESVDNYGISFMHWYQQKPGQAPRLLIYRASNRESGIPARFSGSGSRTDFTLTISSLEPEDFAVYYCQQSNKDPYTFGQGTKLEIK , is 30.4%

// field: %Blocking at 4 nM; key: 021c (antibody, human IgG4, V domains shown, human IgG4 S228P / kappa chimeric antibody; also called chimeric antibody 021; not shown: human kappa light chain constant region (pcDNA3.4-hIgGk vector)) VH: DIQLQESGPGLVKPSQSLSLTCSVTGYSITSGYYWNWIRQFPGNKLEWMGDISYDGGNNYNPSLKNRISITRDTSKNQFFLKLNSVTTEDTATYYCARDITLTGAMDYWGQGTSVTVSS VL: DIVLTQSPASLAVSLGQRATISCRASESVDNYGISFMHWYQQRPGQPPKLLIYRASNLESGIPARFSGSGSRTDFTLTINPVETDDVATYYCQQSNKDPYTFGGGTKLEIK ; value = 20.1%
